# assay_protocol: in vitro
# Design: CCK-8 growth inhibition of MRC5 normal fibroblasts (counter-screen)
# condition_label: human, mrc5 cells; read-out: IC50 (μM) MRC5
metric: CC50 (µM)
Please give a number only; it is taken to be in µM.

Worked examples follow.
[[record]]
chemical_structure = "COc1ccc2cc1Oc1ccc(cc1)C[C@H]1c3cc(c(OC)cc3CCN1C)Oc1c(O)c(OC)cc3c1[C@H](C2)N(C)CC3"
observed_result = 4.35

[[record]]
chemical_structure = "COc1ccc2cc1Oc1ccc(cc1)C[C@H]1c3cc(c(OC)cc3CCN1C)Oc1c(OC)c(OC)cc3c1[C@H](C2)N(C)CC3"
observed_result = 5.75

[[record]]
chemical_structure = "COc1ccc2cc1Oc1ccc(cc1)C[C@H]1c3c(cc4c(c3Oc3cc5c(cc3OC)CCN(C)[C@@H]5C2)OCO4)CCN1C"
observed_result = 8.44


Consider the record given below.
Could you tell me which CC50 is on file for "Cn1cnc2c(F)c(Nc3ccc(Br)cc3F)c(C(=O)NOCCO)cc21" ?
6.32
